The origin of these recorded values is ChEMBL document CHEMBL1157539.

- Tested on: Plasmodium falciparum
- ASSAY_PROTOCOL: GSK_TCMDC: Inhibition of Plasmodium falciparum 3D7 in whole red blood cells, using parasite LDH activity as an index of growth. Test compounds present at 2uM
- Type: functional
compounds and their reported Inhibition
Return type: number; implicit unit %.

Past entries and their recorded results:
{"COMPOUND": "NC1=Nc2ccc(Cl)cc2C1(O)c1ccccc1 (centres undefined)", "REPORTED_RESULT": 100}
{"COMPOUND": "CC(C)Oc1cc2c(cc1NS(=O)(=O)c1ccc(-c3ccc(Cl)s3)cc1F)CCN(C)CC2.Cl", "REPORTED_RESULT": 99}
{"COMPOUND": "O=C(/C=C/c1ccc(Cl)c(Cl)c1)NCCCCCN1CCCN(C(=O)Nc2ccc(Cl)c(Cl)c2)CC1", "REPORTED_RESULT": 100}
{"COMPOUND": "CCc1ccc(CN2CCC(C(=O)Nc3ccc(-c4nc5ccccc5[nH]4)cc3)CC2)o1", "REPORTED_RESULT": 99}
{"COMPOUND": "COc1cccc(-c2ccc3c(-c4cccc(S(C)(=O)=O)c4)cnc(N)c3c2)c1", "REPORTED_RESULT": 96}
{"COMPOUND": "CC(Oc1cc(-n2cnc3ccc(NC(=O)CCN4CCCCC4)cc32)sc1C(N)=O)c1ccccc1Cl (centres undefined)", "REPORTED_RESULT": 99}

Prompt: Hi! What's the reported Inhibition for Cc1cc(C2CCN(CCCCNC(=O)c3ccc(NC(=O)c4ccc(Cl)cc4)cc3)CC2)c(C)cc1OCc1ccncc1.Cl on Plasmodium falciparum?
Completion: 100

Prompt: Hi! What's the reported Inhibition for Br.CC1(C)NC(N)=NC(=N)N1OCCSc1ccc(Cl)c(Cl)c1 on Plasmodium falciparum?
Completion: 96

Prompt: Hi! What's the reported Inhibition for CCOc1cc(C(=O)NCCN(CC)c2cccc(C)c2)ccc1-c1nc2cc(Cl)ccc2[nH]1 on Plasmodium falciparum?
Completion: 100
